systemTested: DNA topoisomerase 1 (Homo sapiens) (UniProt P11387)
Sequence (P11387 whole entry): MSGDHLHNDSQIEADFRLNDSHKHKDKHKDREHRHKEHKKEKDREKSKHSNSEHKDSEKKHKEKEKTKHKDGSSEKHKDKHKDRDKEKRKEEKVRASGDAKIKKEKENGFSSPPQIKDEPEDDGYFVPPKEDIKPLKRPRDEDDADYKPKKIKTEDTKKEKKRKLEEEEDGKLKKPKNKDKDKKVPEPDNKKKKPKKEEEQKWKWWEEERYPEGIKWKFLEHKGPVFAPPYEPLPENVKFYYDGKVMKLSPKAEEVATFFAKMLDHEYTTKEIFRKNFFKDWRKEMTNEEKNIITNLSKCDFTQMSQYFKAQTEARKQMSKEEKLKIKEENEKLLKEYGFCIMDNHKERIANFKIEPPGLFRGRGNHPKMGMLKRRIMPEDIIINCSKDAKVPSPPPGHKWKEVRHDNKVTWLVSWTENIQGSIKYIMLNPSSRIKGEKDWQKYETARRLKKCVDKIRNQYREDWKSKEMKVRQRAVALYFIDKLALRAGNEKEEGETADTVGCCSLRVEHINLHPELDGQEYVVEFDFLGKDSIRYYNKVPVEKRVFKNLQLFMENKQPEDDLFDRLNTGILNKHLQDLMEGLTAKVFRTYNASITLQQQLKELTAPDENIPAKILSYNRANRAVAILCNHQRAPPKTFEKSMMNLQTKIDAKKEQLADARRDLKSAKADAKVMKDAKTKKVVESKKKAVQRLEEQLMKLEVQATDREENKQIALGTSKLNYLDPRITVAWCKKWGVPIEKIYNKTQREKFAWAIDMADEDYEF
experimentalDetails: In vitro inhibition of human DNA topoisomerase I activity.
Design: concentration or dose not given beside the values
measurementParameters: concentration not given here
Assign classes using reported inhibition values and the ranges low bracket: < 20%; middle bracket: ≥ 20% and < 90%; high bracket: ≥ 90%, please.

Request: Would you mind sorting CCOc1ccccc1/N=C1/C(=O)c2cncnc2C(O)=C1Cl into the appropriate category?
Response: low bracket

Request: Bin this entry: Cc1cccc(NC2=C(Cl)C(=O)c3ncncc3C2=O)c1
Response: high bracket

Request: For the record O=C1C(Nc2ccccc2)=C(Cl)C(=O)c2ncncc21 , report the class its inhibition corresponds to.
Response: middle bracket

Request: In plain terms, what class is Cc1ccccc1/N=C1/C(=O)c2cncnc2C(O)=C1Cl ?
Response: middle bracket

Request: Which class holds O=C1C(Nc2ccc3c(c2)OCO3)=C(Cl)C(=O)c2ncncc21 ?
Response: middle bracket

More entries:
Request: In plain terms, what class is O=C1C(Nc2cccc(Br)c2)=C(Cl)C(=O)c2ncncc21 ?
Response: low bracket

Request: Categorize the following entry: Cc1ccc(/N=C2/C(=O)c3cncnc3C(O)=C2Cl)c(Br)c1
Response: high bracket

Request: Which category does the recorded inhibition put Cc1ccc(NC2=C(Cl)C(=O)c3ncncc3C2=O)cc1C in?
Response: high bracket

Request: Which class is correct for the following compound? Cc1ccc(NC2=C(Cl)C(=O)c3ncncc3C2=O)cc1
Response: low bracket

Request: Which of the defined bands does the recorded inhibition of O=C1C(Nc2ccc(Br)cc2)=C(Cl)C(=O)c2ncncc21 sit within?
Response: middle bracket

Request: Bin? O=C1C(Nc2cccc(Cl)c2)=C(Cl)C(=O)c2ncncc21
Response: low bracket

Request: Looking at COc1ccc(/N=C2/C(=O)c3cncnc3C(O)=C2Cl)c(OC)c1 , which class would you pick?
Response: middle bracket
